test system: L929 mice fibroblast cells; assay: Cytotoxicity (residual protein content of the cells); assay type: cell-based; conditions: L929 cells
endpoint-label: Cytotoxicity, in words

# molecule, reading
data = [
    ("C=C(C)C(=O)OCCCCOC(=O)C(=C)C [1,4-butanediol dimethacrylate, reference compound]", "particularly cytotoxic"),
    ("C=CC(=O)OCCCCOC(=O)C=C [1,4-butanediol diacrylate, reference compound]", "particularly cytotoxic"),
]

Numbers sourced from patent US20170051112A1.
